Target: TEC (human)
Experiment: KINOMEscan competition binding
Details: compound 10.0 µM
Reported Endpoint: kinase still bound, per cent of control (%)

Cn1cc(C2=C(c3ccc(Cl)cc3Cl)C(=O)NC2=O)c2ccccc21
84
Cc1cnc(-c2cnc(NCCNc3ccc(C#N)cn3)nc2-c2ccc(Cl)cc2Cl)[nH]1
100
COc1ccc(CNC(=O)Nc2ncc([N+](=O)[O-])s2)cc1
100
O=C1Nc2cc(Br)ccc2/C1=C1/Nc2ccccc2/C1=N\O
100

###

Molecular target: UniProt O75582
Sequence (O75582 whole entry, looked up): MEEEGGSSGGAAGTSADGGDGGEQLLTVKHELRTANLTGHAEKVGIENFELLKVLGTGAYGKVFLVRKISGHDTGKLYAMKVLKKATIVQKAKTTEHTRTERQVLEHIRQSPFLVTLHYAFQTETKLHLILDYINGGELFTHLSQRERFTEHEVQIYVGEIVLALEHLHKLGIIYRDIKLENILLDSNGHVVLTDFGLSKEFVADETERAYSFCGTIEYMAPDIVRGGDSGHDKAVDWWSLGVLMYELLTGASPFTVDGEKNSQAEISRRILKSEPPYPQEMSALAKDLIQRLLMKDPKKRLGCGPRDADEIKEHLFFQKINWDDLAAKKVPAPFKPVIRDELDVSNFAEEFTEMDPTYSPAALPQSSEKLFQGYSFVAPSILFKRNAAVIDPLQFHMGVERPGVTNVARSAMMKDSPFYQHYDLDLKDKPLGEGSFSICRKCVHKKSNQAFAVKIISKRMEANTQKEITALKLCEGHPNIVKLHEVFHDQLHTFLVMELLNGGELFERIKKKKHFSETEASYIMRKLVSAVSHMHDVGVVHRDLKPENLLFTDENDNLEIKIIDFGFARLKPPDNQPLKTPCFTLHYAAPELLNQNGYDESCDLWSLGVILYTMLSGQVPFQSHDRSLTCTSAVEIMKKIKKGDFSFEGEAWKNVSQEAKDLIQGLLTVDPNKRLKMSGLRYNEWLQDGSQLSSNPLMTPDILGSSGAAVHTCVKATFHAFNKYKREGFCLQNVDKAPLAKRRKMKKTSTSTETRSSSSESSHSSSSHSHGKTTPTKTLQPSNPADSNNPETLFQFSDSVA
Test: KINOMEscan competition binding
Conditions: compound 10.0 µM
Reported Endpoint: kinase still bound, per cent of control (%)

Cn1cc(C2=C(c3ccc(Cl)cc3Cl)C(=O)NC2=O)c2ccccc21
98
COc1ccc(CNC(=O)Nc2ncc([N+](=O)[O-])s2)cc1
100

[a] Cc1cnc(-c2cnc(NCCNc3ccc(C#N)cn3)nc2-c2ccc(Cl)cc2Cl)[nH]1
[b] O=C1Nc2cc(Br)ccc2/C1=C1/Nc2ccccc2/C1=N\O
Query: Compare a and b and name the one whose reported kinase still bound, per cent of control is smaller. Mark your answer with the label of the selected entry.
Result: b

###

Biological target: MYLK2 (human)
Assay: KINOMEscan competition binding
Conditions: compound 10.0 µM
Reported Endpoint: kinase still bound, per cent of control (%)

Example results:
COc1ccc(CNC(=O)Nc2ncc([N+](=O)[O-])s2)cc1
93
Cn1cc(C2=C(c3ccc(Cl)cc3Cl)C(=O)NC2=O)c2ccccc21
100

[P] Cc1cnc(-c2cnc(NCCNc3ccc(C#N)cn3)nc2-c2ccc(Cl)cc2Cl)[nH]1
[Q] O=C1Nc2cc(Br)ccc2/C1=C1/Nc2ccccc2/C1=N\O
Query: Pick one: P or Q . Which one has the lower reported kinase still bound, per cent of control? // output: label of the selected item
Result: Q
(Q: 3%, P: 97%)

###

Molecular target: CLK4 (human)
Test: KINOMEscan competition binding
Conditions: compound 10.0 µM
Reported Endpoint: kinase still bound, per cent of control (%)

O=C1Nc2cc(Br)ccc2/C1=C1/Nc2ccccc2/C1=N\O
99

[a] Cn1cc(C2=C(c3ccc(Cl)cc3Cl)C(=O)NC2=O)c2ccccc21
[b] COc1ccc(CNC(=O)Nc2ncc([N+](=O)[O-])s2)cc1
Query: Smaller kinase still bound, per cent of control value, a vs b ? Selection: enter the item's label.
Result: a

###

Target: CHEK1 (human) (UniProt O14757)
Sequence (O14757 whole entry, looked up): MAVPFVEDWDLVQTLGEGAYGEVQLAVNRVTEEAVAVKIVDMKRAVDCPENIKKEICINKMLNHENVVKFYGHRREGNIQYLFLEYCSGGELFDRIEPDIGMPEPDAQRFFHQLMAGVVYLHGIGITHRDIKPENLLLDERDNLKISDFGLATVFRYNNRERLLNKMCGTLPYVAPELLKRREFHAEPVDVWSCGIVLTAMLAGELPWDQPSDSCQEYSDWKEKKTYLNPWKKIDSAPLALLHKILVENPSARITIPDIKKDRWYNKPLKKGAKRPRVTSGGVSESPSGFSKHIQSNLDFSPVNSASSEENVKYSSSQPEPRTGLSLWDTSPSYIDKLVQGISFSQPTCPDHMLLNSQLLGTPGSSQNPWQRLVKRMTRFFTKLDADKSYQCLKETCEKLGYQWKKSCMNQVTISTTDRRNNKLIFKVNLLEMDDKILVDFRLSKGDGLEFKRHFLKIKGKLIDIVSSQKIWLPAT
Test: KINOMEscan competition binding
Settings: compound 10.0 µM
Reported Endpoint: kinase still bound, per cent of control (%)

Look over these answered cases.
Cn1cc(C2=C(c3ccc(Cl)cc3Cl)C(=O)NC2=O)c2ccccc21
94
Cc1cnc(-c2cnc(NCCNc3ccc(C#N)cn3)nc2-c2ccc(Cl)cc2Cl)[nH]1
100

[P] O=C1Nc2cc(Br)ccc2/C1=C1/Nc2ccccc2/C1=N\O
[Q] COc1ccc(CNC(=O)Nc2ncc([N+](=O)[O-])s2)cc1
Query: Field: lower kinase still bound, per cent of control | Options: P / Q Identify your pick by its label.
Result: P

###

Biological target: MAP3K7 (human)
Test: KINOMEscan competition binding
Details: compound 10.0 µM
Reported Endpoint: kinase still bound, per cent of control (%)

O=C1Nc2cc(Br)ccc2/C1=C1/Nc2ccccc2/C1=N\O
20
COc1ccc(CNC(=O)Nc2ncc([N+](=O)[O-])s2)cc1
88

[1] Cc1cnc(-c2cnc(NCCNc3ccc(C#N)cn3)nc2-c2ccc(Cl)cc2Cl)[nH]1
[2] Cn1cc(C2=C(c3ccc(Cl)cc3Cl)C(=O)NC2=O)c2ccccc21
Query: Quick one: lower kinase still bound, per cent of control, 1 or 2 ? Return value: the label identifying the chosen record.
Result: 1
(1: 51%, 2: 100%)

# credit: the kinase profiling compilation of Christmann-Franck et al. (2016)
